tested on: CD34 + CD45RA- cells; assay: Expansion of CD34+CD45RA- cells compared to DMSO (EC50); format: cell-based; details: concentration of compound necessary to expand 50% more of CD34+CD45RA- cells as compared to cells treated with DMSO
Attribute: EC50

compound | EC50
COC(=O)c1ccc2c(c1)[nH]c1nc(Cc3ccccc3)nc(NCCCCCCCCN)c12 | 0.039 µM
CN(CCCN)CCCNc1nc(Cc2ccccc2Br)nc2[nH]c3cc(-c4nnn(C)n4)ccc3c12 | 0.051 µM
COC(=O)c1ccc2c(c1)[nH]c1nc(Cc3cccc(C(O)C(F)(F)F)c3)nc(NCCCN3CCCCC3)c12 (stereo not shown) | 0.016 µM
CCOC(=O)c1ccc2c(c1)[nH]c1nc(Cc3ccccc3)nc(NCCCN3CCCCC3)c12 | 0.154 µM

----------
Items are presented alongside their recorded pEC50.
test system: CD34 + CD45RA- cells; test: Expansion of CD34+CD45RA- cells compared to DMSO (EC50); format: cell-based; settings: concentration of compound necessary to expand 50% more of CD34+CD45RA- cells as compared to cells treated with DMSO
pEC50: −log10 of the molar value.

item smiles | pEC50
COC(=O)c1ccc2c(c1)[nH]c1nc(Cc3ccccc3)nc(NCCCCO)c12 | 6.93
Cn1nnc(-c2cnc3c(c2)[nH]c2nc(Cc4ccccc4)nc(N[C@H]4CC[C@H](N)CC4)c23)n1 | 6.44
COC(=O)c1ccc2c(c1)[nH]c1nc(Cc3cccc(CO)c3)nc(NCCCN(C)CCCN)c12 | 7.42
COC(=O)c1ccc2c(c1)[nH]c1nc(Cc3ccccc3)nc(NCCCN(C)CCCNc3ncnc4[nH]c5ccccc5c34)c12 | 7.72

----------
system: CD34 + CD45RA- cells; experiment: Expansion of CD34+CD45RA- cells compared to DMSO (EC50); type: cell-based; details: concentration of compound necessary to expand 50% more of CD34+CD45RA- cells as compared to cells treated with DMSO
pEC50: −log10 of the molar value.
Returns true if the recorded pEC50 is greater than or equal to 7, and false otherwise.

molecule | cat
CNC(=O)c1ccc2c(c1)[nH]c1nc(Cc3ccccc3)nc(NCCCN3CCCCC3)c12 [Compound 12] | false
COC(=O)c1ccc2c(c1)[nH]c1nc(Cc3ccccc3)nc(NCCCN3C(=O)CCC3=O)c12 [Compound 49] | true
COC(=O)c1ccc2c(c1)[nH]c1cc(Cc3cccnc3)cc(NCCCN3CCOCC3)c12 [Compound 38] | false
Cn1nnc(-c2ccc3c(c2)[nH]c2ncnc(NCCCCN4CCCCC4)c23)n1 [Compound 29] | true
COC(=O)c1ccc2c(c1)[nH]c1nc(Cc3ccccc3)nc(SCCCN3CCCCC3)c12 [Compound 15] | false
COC(=O)c1ccc2c(c1)[nH]c1nc(Cc3cccnc3)nc(NCCCN3CCCCC3)c12 [Compound 4] | true

----------
tested on: CD34 + CD45RA- cells; test: Expansion of CD34+CD45RA- cells compared to DMSO (EC50); type: cell-based; settings: concentration of compound necessary to expand 50% more of CD34+CD45RA- cells as compared to cells treated with DMSO
pEC50: −log10 of the molar value.
measured property: pEC50

compound | reading
COC(=O)c1ccc2c(c1)[nH]c1nc(CCc3ccccc3)nc(NCCCN(C)CC(O)C[N+](C)(C)C)c12 (centres unmarked) | 6.93
CN(CCCN)CCCNc1nc(Cc2cccc(Br)c2)nc2[nH]c3cc(-c4nnn(C)n4)ccc3c12 | 6.94
COC(=O)c1ccc2c(c1)[nH]c1nc(Cc3ccccc3)nc(NCCCCCN(C)C)c12 | 8.70
COC(=O)c1ccc2c(c1)[nH]c1nc(C(O)c3ccccc3)nc(NCCCN3CCCCC3)c12 (centres unmarked) | 8.40
COC(=O)c1ccc2c(c1)[nH]c1nc(Cc3cccc(C)c3)nc(NCCCN3CCCCC3)c12 | 7.42
COC(=O)c1ccc2c(c1)[nH]c1nc(Cc3ccccc3)nc(NCC3CCCN(C(=O)OC)C3)c12 (centres unmarked) | 7.10
COC(=O)c1ccc2c(c1)[nH]c1nc(Cc3ccccc3)nc(NCCNC3=NCCC3)c12 | 7.12
COC(=O)c1ccc2c(c1)[nH]c1cc(Cc3cccc(O)c3)nc(NCCCCN3CCCC3)c12 | 7.36
